Test system: E. coli BL21
test-protocol: MIC against Gram-negative bacteria: E. coli BL21
Assay type: cell-based
conditions: E. coli BL21; 10 h cultivation at 37° C.; 5×10^5 CFU/mL
Please go through the items and note down their MIC (μg/mL) E. coli BL21.
Give bare numbers, in µg/mL.

Would you please look over these solved cases?
>  <substance>
PRT201 (NMSSCPLDSKGKVCSGHGVCSNEATCICDFTWAGTDCS; listed as Homo sapiens)

>  <unit-string>
µg/mL

>  <MIC (μg/mL) E. coli BL21>
12.5

$$$$
>  <substance>
PRT787 (RQICDCLNNSTCDHITGTCYCSPGWKGARCD; listed as Homo sapiens)

>  <unit-string>
µg/mL

>  <MIC (μg/mL) E. coli BL21>
12.5

$$$$
>  <substance>
PRT154 (DVDECSLAEKTCVRKNENCYNTPGSYVCVCPDGFEETEDACV; listed as Homo sapiens)

>  <unit-string>
µg/mL

>  <MIC (μg/mL) E. coli BL21>
50

$$$$
>  <substance>
PRT260 (CRAGNGGCHGLATCRAVGGGQRVCTCPPGFGGDGFSC; listed as Homo sapiens)

>  <unit-string>
µg/mL

>  <MIC (μg/mL) E. coli BL21>
25

$$$$
>  <substance>
PRT832 (DVDECAAGLAQCAHGCLNTQGSFKCVCHAGYELGADGRQCY; listed as Homo sapiens)

>  <unit-string>
µg/mL

>  <MIC (μg/mL) E. coli BL21>
12.5

$$$$
>  <substance>
PRT836 (FGHDCSLTCDDCRNGGTCLLGLDGCDCPEGWTGLICN; listed as Homo sapiens)

>  <unit-string>
µg/mL

>  <MIC (μg/mL) E. coli BL21>
12.5

$$$$
>  <substance>
PRT874 (CNCNQIGSVHDRCNETGFCECREGAAGPKCDDCLPTHYWRQGCYP; listed as Homo sapiens)

>  <unit-string>
µg/mL

>  <MIC (μg/mL) E. coli BL21>
25

$$$$
>  <substance>
PRT750 (DIDECQVAPGEAPTCDHHCHNHLGGFYCSCRAGYVLHRNKRTCS; listed as Homo sapiens)

>  <unit-string>
µg/mL

>  <MIC (μg/mL) E. coli BL21>
12.5

$$$$
>  <substance>
PRT804 (HGAHCELRCPCQNGGTCHHITGECACPPGWTGAVCA; listed as Homo sapiens)

>  <unit-string>
µg/mL

>  <MIC (μg/mL) E. coli BL21>
50

$$$$
>  <substance>
PRT826 (FGVGCEHTCSCRNGGLCHASNGSCSCGLGWTGRHCE; listed as Homo sapiens)

>  <unit-string>
µg/mL

>  <MIC (μg/mL) E. coli BL21>
50

$$$$

The following substances each have a reported value; give each one's MIC (μg/mL) E. coli BL21.
1. PRT222 (DVDECAQALHDCRPSQDCHNLPGSYQCTCPDGYRKIGPECV; listed as Homo sapiens)
2. PRT835 (DVDECASSRGGCEHHCTNLAGSFQCSCEAGYRLHEDRRGCS; listed as Homo sapiens)
3. PRT245 (DIDECASGKVICPYNRRCVNTFGSYYCKCHIGFELQYIS; listed as Homo sapiens)
4. PRT767 (AIDLCAEGTHGCEHHCVNSPGSYFCHCQVGFVLQQDQ; listed as Homo sapiens)

[12.5, 50, 50, 50]

The following substances each have a reported value; give each one's MIC (μg/mL) E. coli BL21.
1. PRT224 (DVNECDMGAPCEQRCFNSYGTFLCRCHQGYELHRDGFSCS; listed as Homo sapiens)
2. PRT218 (DINECDASNQCAQQCYNILGSFICQCNQGYELSSDRLNCE; listed as Homo sapiens)
3. PRT759 (RVDYCLLSDHGCEYSCVNMDRSFACQCPEGHVLRSDGKTCA; listed as Homo sapiens)
4. PRT789 (YGNDCHQRCQCQNGATCDHVTGECRCPPGYTGAFCE; listed as Homo sapiens)

1. 12.5
2. 50
3. 12.5
4. 50
